# measurement target: Neurotensin receptor type 1 (Rattus norvegicus)
# Sequence (P20789 whole entry): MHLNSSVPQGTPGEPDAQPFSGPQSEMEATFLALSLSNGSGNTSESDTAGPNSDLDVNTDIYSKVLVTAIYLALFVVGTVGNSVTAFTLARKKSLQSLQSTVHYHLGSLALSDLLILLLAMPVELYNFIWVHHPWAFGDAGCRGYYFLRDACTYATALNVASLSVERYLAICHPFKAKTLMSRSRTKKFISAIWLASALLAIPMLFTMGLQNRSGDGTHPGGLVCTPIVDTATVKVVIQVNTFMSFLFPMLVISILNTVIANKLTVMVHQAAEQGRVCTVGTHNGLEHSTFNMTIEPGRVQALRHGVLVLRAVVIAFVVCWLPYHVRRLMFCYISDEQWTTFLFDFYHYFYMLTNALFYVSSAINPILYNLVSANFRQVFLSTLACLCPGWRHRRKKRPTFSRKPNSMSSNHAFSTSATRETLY
# test summary: Displacement of [125I]NT from rat NTR1 transfected in mouse LTK cells
# Format: cell-based
assay endpoint: Ki

[[record]]
molecule = "COc1cccc(OC)c1-c1cc(C(=O)NC2(C(=O)O)C3CC4CC(C3)CC2C4)nn1-c1ccnc2cc(Cl)ccc12 (stereo unspecified) [REMINERTANT]"
assay_endpoint = "Ki"
result = "2.6 nM"


###

# measurement target: Neurotensin receptor type 2 (Homo sapiens, UniProt O95665)
# Sequence (O95665 whole entry): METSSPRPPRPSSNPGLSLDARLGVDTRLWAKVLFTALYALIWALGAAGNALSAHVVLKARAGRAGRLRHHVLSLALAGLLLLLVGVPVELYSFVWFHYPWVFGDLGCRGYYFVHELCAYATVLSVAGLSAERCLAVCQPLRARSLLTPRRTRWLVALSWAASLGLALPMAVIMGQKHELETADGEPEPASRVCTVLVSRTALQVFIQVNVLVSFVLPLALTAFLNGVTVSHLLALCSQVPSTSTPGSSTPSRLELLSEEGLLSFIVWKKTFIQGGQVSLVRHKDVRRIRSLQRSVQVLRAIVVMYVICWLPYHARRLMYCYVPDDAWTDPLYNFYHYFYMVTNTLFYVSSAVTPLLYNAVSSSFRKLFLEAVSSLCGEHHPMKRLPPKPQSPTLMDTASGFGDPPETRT
pKi: −log10 of the molar value.
assay endpoint: pKi

[[record]]
compound = "COc1cccc(OC)c1-c1cc(C(=O)NC2(C(=O)O)C3CC4CC(C3)CC2C4)nn1-c1ccnc2cc(Cl)ccc12 (stereo unspecified) [REMINERTANT]"
assay_endpoint = "pKi"
numeric_value = 6.38


Data credit: ChEMBL document CHEMBL2401662
